Reference source: the supplement of paper PMC12455559

Reported purified protein yield per well values are given for each entry in this list.
- protocol-summary: purified protein yield per well (BCA); higher = higher soluble expression
value-type: purified protein yield per well (µg)

{"sequence-data": "DANPYQRGPAPTESSVAAEKGPFAVAQTDVPAGSGQGFNDGTIYYPTDTSQGTFGAVVVMPGFVSPQEWIRWYGPLLASQGFVVMTLDSNTLLDFPGARGDQILAALDYLTTKSKVVDRIDTGRLAVMGWSMGGGGTLEAAAERPSLKADIALAPWDLDNVAAKVKVPSMIIADDTDILAPTGVFAKPFYDAMSTAPDKAFFELKSANHFTFTSYNKTIAKYAVSWLKRFVDDDTRYDQFLCPKPAPSNEITQFEETCPLG [TEP059]", "relation-qualifier": "<", "reported-value": 25}
{"sequence-data": "TNPAPPSTPNPPAEESPYVRGPNPTVSFLEARSGPLSVRTSRVSSLVSGFGGGTIHYPTGTTGTMGAVVVIPGFVSAESSIDWWGPKLASHGFVVLTIDTNTGFDQPPSRARQINNALDYLVSQNSSRTSPVRGMIDTNRLGVIGWSMGGGGTLRVASEGRIKAAIPLAPWDTVSSYAANAQAPTLIFACQADIVAPVAAHASPFYNRLPNSIDKAYVEISGGSHYCANGGGLNNNVLSRFGVSWMKRFLDEDTRYSQFLCGPNHRSDRDIADYRGNCP [ESM172]", "relation-qualifier": "=", "reported-value": 26}
{"sequence-data": "ADSPYQRGPDPTPASVAATRGPFATTQATVPAGNGFNGGYVYYPTDTSQGTWGAVAIVPGYSALFANEEAWMGPWLASFGFVVIGIETNSRSDGADARATQLLAALDYLTRTSPIRDRVDANRLGVMGHSAGGAGTLLASLRRPTLKTAVGLAPGTPGNNLNMSTTQVPTMLLSGQNDGTVTPSYVQGIYNTLPAGVEHAWAELAGNDHLSFTRSNPTEMRLLIPWLKTFLDNDTRYTQFLCPLGNSTGVSRYNATCPLVPPDGPTTPPTSSPPTSAPPTTSAPTTPPPSGAPCTATYRTVNAWSGGFQGEVTVTAGTAAINGWTVTWGLNNGQSISQVWSGTLSTSGSTATIRNVSYNGSLAPGGTTSFGFLGSGTPAATSPTCASP [ESM025]", "relation-qualifier": "<", "reported-value": 25}
{"sequence-data": "AGNPYQRGPDPTLASVAASRGTFATAQVSVPAGNGFNGGTIYYPTDSSQGTWGAVAIVPGYTALFANEEAWMGPWLASFGFVVIGIETNSRTDFDTARGTQLLAALDYLTQKSPVRDRVDSARLGVIGHSMGGGGVVYATEHRPSLKAAVALAPFSPSQDMSTDHVPTMVMGGQNDTVVTPSYLDGLYATMPASTQSDFVQLAGADHVAYTHPNTTEMRLLIPWLKIFLDDDTRYTQFLCPLMDSTGVSAYHSKCPYVPPGGSTSTPTPTPTITPTPPPSGACSATYRTVNSWSGGYQGEVTVTAGDAAINGWTVRWNLGGGQTVTQVWNGTLSTSGSTATVTNASYNGSLQASASTTFGFLANGTPSTPAITCTSP [TEP114]", "relation-qualifier": "=", "reported-value": 407}
{"sequence-data": "CVFPPAPPPPGSGYTITTVAAGNGFGGGTIYLPEGVTGRRGAVAVVPGFTGTQSTVAWYGPLLAKEGYVVFTIDTNSGWDSPQARGTQLLAALDYLTTQSSAASRVDPARLAVMGHSMGGGGSLEAAKARPSLKAAIPLAGWNSVTNFSTVTVPTLVVA [TEP070]", "relation-qualifier": "<", "reported-value": 25}
